meta.source: PubChem BioAssay

assay: compound effects on multiple myeloma cell viability – MM1S, calcein-AM fluorescence, 48 h, basal, profiling panel (AID 1165); details: higher = more signal;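 further: viability of MM1S multiple myeloma cells under basal unstimulated conditions; test concentration not given here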
measured.metric: z-score
Lab note: jot the number down without any unit.

Exercise: # input compound: CC(C)[Si](C#CCCCC#N)(O[C@H](c1ccccc1)c1cn(Cc2ccccc2)nn1)C(C)C ; wanted: its z-score
Key: 0.444

Exercise: # input compound: CCCCCN1CC=CC23O[C@@H]4/C=C\CCCOC(=O)C4[C@H]2C(=O)N(C(C)CO)[C@@H]3C1=O (some centres undefined) ; wanted: its z-score
Key: 1.16

Exercise: # input compound: C[C@@H]1NC(=O)[C@@H](Cc2ccccc2)NC(=O)[C@@]23C(=O)N[C@@H](Cc4ccccc4)C2[C@H](C)[C@@]2(C)O[C@H]2C3/C=C/C/C=C\CNC1=O (some centres undefined) ; wanted: its z-score
Key: 0.18

Exercise: # input compound: COCC(=C=CC[C@H](O)c1ccc(CO)o1)CCO ; wanted: its z-score
Key: -0.558

###

assay: JC-1 mitochondrial signal, unstimulated MM1S myeloma – cell-based, JC-1 fluorescence, 24 h, 100 nL compound, profiling panel (AID 1170); settings: MM1S mitochondrial potential, higher = more signal; further: test concentration not given here
// label = condition met if z-score is not less than 0.2, otherwise condition not met

Exercise: Can C=CCC(OC(C)=O)[C@@H]1[C@@H](N(Cc2ccc(-c3cccc(C(F)(F)F)c3)o2)C(=O)c2ccc(-c3ccccc3)cc2)c2cc(OCCCO)ccc2N1C(=O)Cc1ccc2ccccc2c1 (some centres undefined) be said to have z-score at or above 0.2?
Key: condition not met

Exercise: Can C=CC[C@@]1(C(=O)NCCCOC)N=C(c2ccc(OCCCO)cc2)O[C@@H]1c1ccccc1 be said to have z-score at or above 0.2?
Key: condition not met

Exercise: Can CCCCC(CC)C(O)C1C=CC2C(=O)N(C)C(=O)C2N1Nc1ccccc1 (centres undefined) be said to have z-score at or above 0.2?
Key: condition not met

Exercise: Can O=C1O[C@@H](c2ccccc2)[C@@H](c2ccccc2)N2[C@@H](c3ccc(O)cc3)[C@]3(C(=O)Nc4ccc(C#CCCO)cc43)[C@@H](C(=O)N3CCN(c4ncccn4)CC3)[C@H]12 be said to have z-score at or above 0.2?
Key: condition not met

Exercise: Can C=CCC(OC(C)=O)[C@@H]1[C@@H](N(Cc2cccc3ccccc23)C(=O)Cc2ccc(OC)cc2)c2cc(OCCCO)ccc2N1C(=O)c1ccc(-c2ccccc2)cc1 (some centres undefined) be said to have z-score at or above 0.2?
Key: condition met

Exercise: Can CCOC(=O)C1=C[C@@H](C(C)(C)C)N(S(=O)(=O)c2ccc(C)cc2)[C@H]1c1cccc2ccccc12 be said to have z-score at or above 0.2?
Key: condition not met

Exercise: Can CN(C)C(=O)[C@]1(CCC(=O)OC(C)(C)C)N=C(c2ccc(OCCCO)cc2)O[C@@H]1c1ccccc1CN=[N+]=[N-] be said to have z-score at or above 0.2?
Key: condition not met

Exercise: Can CO[C@H]1O[C@H](CO)[C@@H](OC(=O)Nc2ccc(Br)cc2)[C@@H]2OC(=O)[C@@H](Cc3ccccc3)C/C=C/C[C@H](Cc3ccccc3)C(=O)O[C@@H]12 be said to have z-score at or above 0.2?
Key: condition not met

Exercise: Can C=CCNC(=O)[C@H]1[C@@H]2C(=O)O[C@@H](c3ccccc3)[C@@H](c3ccccc3)N2[C@@H](c2ccccc2OCCO)[C@]12C(=O)N(C(=O)OCCOC)c1ccc(C#CC3(O)CCCCCC3)cc12 be said to have z-score at or above 0.2?
Key: condition not met

Exercise: Can N[C@@H](Cc1ccccc1)C(=O)NCc1cn(Cc2ccccc2)nn1 be said to have z-score at or above 0.2?
Key: condition met

Exercise: Can Cn1cccc1C(O)C1C=CC2C(=O)N(c3ccccc3)C(=O)C2N1Nc1ccccc1 (centres undefined) be said to have z-score at or above 0.2?
Key: condition not met

Exercise: Can C=CCC(OC(C)=O)[C@@H]1[C@@H](N(Cc2cc3ccccc3o2)C(=O)Cc2ccc(F)cc2)c2cc(OCCCO)ccc2N1C(=O)Cc1ccc2ccccc2c1 (some centres undefined) be said to have z-score at or above 0.2?
Key: condition met

Exercise: Can CC1=C2[C@@H](CCc3ccccc3)OB(O)C[C@@H]2[C@@H]2C(=O)N(C)C(=O)[C@@H]2C1 be said to have z-score at or above 0.2?
Key: condition not met

Exercise: Can C=C(/C(=C/C[C@H](OC(C)=O)c1ccc(CO)o1)c1cnc2ccccc2c1)C(C)C be said to have z-score at or above 0.2?
Key: condition met
